- Tested on: P. aeruginosa
- experiment_description: MIC50/90 against small panels (n = 35)
- Type: cell-based, Pseudomonas aeruginosa
- Set-up: key: A: a MIC value measurement that is the same as that observed for polymyxin B; a MIC value measured that is lower than the comparable value observed for polymxin B; a MIC value measured that is higher than the comparable value observed for polymyxin B
- experimental_setup: small panel n = 35, relative to polymyxin B
*1 amine or outer side, *2 acyl side, *3 side chain or, on linkers, in order; H or OH if unused. Where a SMILES comes first, the peptide text is derived from it. Bridges are numbered along the chain shown (N, C = ends). [ ]: non-standard residue; d: D form. The star is where a group is joined. ξ: configuration not given here. Octanoyl(6-Me) = CCC(C)CCCCC(=O)*; Thr(3ξ) = CC(O)[C@H](N)C(=O)O; NH(2-ClPh) = Clc1ccccc1N*; X1 = CC[C@H](C)CCCCC(=O)*; dDab = NCC[C@@H](N)C(=O)O; Dab = NCC[C@H](N)C(=O)O; CO = O=C([*:1])[*:2]; ξDab = NCCC(N)C(=O)O
observable: P. aeruginosa MIC50

molecule="CC(C)C[C@H]1NC(=O)[C@H](CCN)NC(=O)[C@@H](NC(=O)[C@@H](CCN)NC(=O)[C@@H](NC(=O)[C@H](CCN)NC(=O)[C@H]2C[C@@H]2c2ccccc2)C(C)O)CCNC(=O)[C@H](C(C)O)NC(=O)[C@H](CCN)NC(=O)[C@H](CCN)NC(=O)[C@H](C(C)O)NC1=O (single isomer, unassigned) [Compound 5]" study_system="P. aeruginosa" measured=A
molecule="CC(C)C[C@@H]1NC(=O)[C@@H](Cc2ccccc2)NC(=O)[C@H](CCN)NC(=O)C(NC(=O)[C@H](CCN)NC(=O)[C@@H](NC(=O)[C@H](CCN)NC(=O)Nc2ccccc2Cl)C(C)O)CCNC(=O)[C@H](C(C)O)NC(=O)[C@H](CCN)NC(=O)C(CCN)NC1=O (stereo partly shown) [Formula (II) comparator] ({NH(2-ClPh)-CO}-[Dab][Thr(3ξ)][Dab][ξDab][Dab][dF]L[ξDab][Dab][Thr(3ξ)]; lactam 4-C)" study_system="P. aeruginosa" measured=B
molecule="CC[C@H](C)CCCCC(=O)N[C@@H](CCN)C(=O)N[C@H](C(=O)N[C@H](CCN)C(=O)N[C@H]1CCNC(=O)[C@H]([C@@H](C)O)NC(=O)[C@H](CCN)NC(=O)[C@H](CCN)NC(=O)[C@H]([C@@H](C)O)NC(=O)[C@@H](CC(C)C)NC(=O)[C@H](CCN)NC1=O)[C@@H](C)O [Native Polymyxin A, Polymyxin A] (X1-[Dab]T[dDab][Dab][Dab][dL]T[Dab][Dab]T; lactam 4-C)" study_system="P. aeruginosa" measured=A
molecule="CCC(C)CCCCC(=O)N[C@@H](CCN)C(=O)N[C@H](C(=O)N[C@@H](CCN)C(=O)NC1CCNC(=O)[C@H](C(C)O)NC(=O)[C@H](CCN)NC(=O)C(CCN)NC(=O)[C@H](CC(C)C)NC(=O)[C@@H](Cc2ccccc2)NC(=O)[C@H](CCN)NC1=O)C(C)O (stereo partly shown) [Polymyxin B] ({Octanoyl(6-Me)}-[Dab][Thr(3ξ)][Dab][ξDab][Dab][dF]L[ξDab][Dab][Thr(3ξ)]; lactam 4-C)" study_system="P. aeruginosa" measured=A

###

- Tested on: P. aeruginosa 44
- experiment_description: MIC against the primary screening panel (broth microdilution)
- Type: cell-based, Pseudomonas aeruginosa
- Design: key: A: a MIC value measurement that is the same as that observed for polymyxin B; a MIC value measured that is lower than the comparable value observed for polymxin B; a MIC value measured that is higher than the comparable value observed for polymyxin B
- experimental_setup: relative to polymyxin B
*1 amine or outer side, *2 acyl side, *3 side chain or, on linkers, in order; H or OH if unused. Where a SMILES comes first, the peptide text is derived from it. Bridges are numbered along the chain shown (N, C = ends). [ ]: non-standard residue; d: D form. The star is where a group is joined. ξ: configuration not given here. Octanoyl(6-Me) = CCC(C)CCCCC(=O)*; Thr(3ξ) = CC(O)[C@H](N)C(=O)O; NH(2-ClPh) = Clc1ccccc1N*; X1 = CC[C@H](C)CCCCC(=O)*; dDab = NCC[C@@H](N)C(=O)O; Dab = NCC[C@H](N)C(=O)O; CO = O=C([*:1])[*:2]; ξDab = NCCC(N)C(=O)O
observable: MIC P. aeruginosa 44

compound="CCC(C)CCCCC(=O)N[C@@H](CCN)C(=O)N[C@H](C(=O)N[C@@H](CCN)C(=O)NC1CCNC(=O)[C@H](C(C)O)NC(=O)[C@H](CCN)NC(=O)C(CCN)NC(=O)[C@H](CC(C)C)NC(=O)[C@@H](Cc2ccccc2)NC(=O)[C@H](CCN)NC1=O)C(C)O (stereo partly shown) [Polymyxin B] ({Octanoyl(6-Me)}-[Dab][Thr(3ξ)][Dab][ξDab][Dab][dF]L[ξDab][Dab][Thr(3ξ)]; lactam 4-C)" measured=A
compound="CC[C@H](C)CCCCC(=O)N[C@@H](CCN)C(=O)N[C@H](C(=O)N[C@H](CCN)C(=O)N[C@H]1CCNC(=O)[C@H]([C@@H](C)O)NC(=O)[C@H](CCN)NC(=O)[C@H](CCN)NC(=O)[C@H]([C@@H](C)O)NC(=O)[C@@H](CC(C)C)NC(=O)[C@H](CCN)NC1=O)[C@@H](C)O [Native Polymyxin A, Polymyxin A] (X1-[Dab]T[dDab][Dab][Dab][dL]T[Dab][Dab]T; lactam 4-C)" measured=C
compound="CC(C)C[C@H]1NC(=O)[C@H](CCN)NC(=O)[C@@H](NC(=O)[C@@H](CCN)NC(=O)[C@@H](NC(=O)[C@H](CCN)NC(=O)[C@H]2C[C@@H]2c2ccccc2)C(C)O)CCNC(=O)[C@H](C(C)O)NC(=O)[C@H](CCN)NC(=O)[C@H](CCN)NC(=O)[C@H](C(C)O)NC1=O (single isomer, unassigned) [Compound 5]" measured=C
compound="CC(C)C[C@@H]1NC(=O)[C@@H](Cc2ccccc2)NC(=O)[C@H](CCN)NC(=O)C(NC(=O)[C@H](CCN)NC(=O)[C@@H](NC(=O)[C@H](CCN)NC(=O)Nc2ccccc2Cl)C(C)O)CCNC(=O)[C@H](C(C)O)NC(=O)[C@H](CCN)NC(=O)C(CCN)NC1=O (stereo partly shown) [Formula (II) comparator] ({NH(2-ClPh)-CO}-[Dab][Thr(3ξ)][Dab][ξDab][Dab][dF]L[ξDab][Dab][Thr(3ξ)]; lactam 4-C)" measured=C

###

- Test system: A. baum
- experiment_description: MIC50 and MIC90, CLSI broth microdilution, panel of Gram negative strains
- Type: cell-based, Acinetobacter baumannii
- Parameters: key: A: a measured MIC value equal to that of polymyxin B; a measured MIC value less than the corresponding MIC value measured for polymyxin B; a measured MIC value greater than the corresponding MIC value measured for polymyxin B
- experimental_setup: relative to polymyxin B; some strains multi-drug resistant
*1 amine or outer side, *2 acyl side, *3 side chain or, on linkers, in order; H or OH if unused. Where a SMILES comes first, the peptide text is derived from it. Bridges are numbered along the chain shown (N, C = ends). [ ]: non-standard residue; d: D form. The star is where a group is joined. ξ: configuration not given here. Octanoyl(6-Me) = CCC(C)CCCCC(=O)*; Thr(3ξ) = CC(O)[C@H](N)C(=O)O; NH(2-ClPh) = Clc1ccccc1N*; X1 = CC[C@H](C)CCCCC(=O)*; dDab = NCC[C@@H](N)C(=O)O; Dab = NCC[C@H](N)C(=O)O; CO = O=C([*:1])[*:2]; ξDab = NCCC(N)C(=O)O
observable: A. baum MIC 90

compound="CC(C)C[C@@H]1NC(=O)[C@@H](Cc2ccccc2)NC(=O)[C@H](CCN)NC(=O)C(NC(=O)[C@H](CCN)NC(=O)[C@@H](NC(=O)[C@H](CCN)NC(=O)Nc2ccccc2Cl)C(C)O)CCNC(=O)[C@H](C(C)O)NC(=O)[C@H](CCN)NC(=O)C(CCN)NC1=O (stereo partly shown) [Formula (II) comparator] ({NH(2-ClPh)-CO}-[Dab][Thr(3ξ)][Dab][ξDab][Dab][dF]L[ξDab][Dab][Thr(3ξ)]; lactam 4-C)" study_system="A. baum" observable="A. baum MIC 90" measured=C
compound="CCC(C)CCCCC(=O)N[C@@H](CCN)C(=O)N[C@H](C(=O)N[C@@H](CCN)C(=O)NC1CCNC(=O)[C@H](C(C)O)NC(=O)[C@H](CCN)NC(=O)C(CCN)NC(=O)[C@H](CC(C)C)NC(=O)[C@@H](Cc2ccccc2)NC(=O)[C@H](CCN)NC1=O)C(C)O (stereo partly shown) [Polymyxin B] ({Octanoyl(6-Me)}-[Dab][Thr(3ξ)][Dab][ξDab][Dab][dF]L[ξDab][Dab][Thr(3ξ)]; lactam 4-C)" study_system="A. baum" observable="A. baum MIC 90" measured=A
compound="CC[C@H](C)CCCCC(=O)N[C@@H](CCN)C(=O)N[C@H](C(=O)N[C@H](CCN)C(=O)N[C@H]1CCNC(=O)[C@H]([C@@H](C)O)NC(=O)[C@H](CCN)NC(=O)[C@H](CCN)NC(=O)[C@H]([C@@H](C)O)NC(=O)[C@@H](CC(C)C)NC(=O)[C@H](CCN)NC1=O)[C@@H](C)O [Native Polymyxin A, Polymyxin A] (X1-[Dab]T[dDab][Dab][Dab][dL]T[Dab][Dab]T; lactam 4-C)" study_system="A. baum" observable="A. baum MIC 90" measured=A
compound="CC(C)C[C@H]1NC(=O)[C@H](CCN)NC(=O)[C@@H](NC(=O)[C@@H](CCN)NC(=O)[C@@H](NC(=O)[C@H](CCN)NC(=O)[C@H]2C[C@@H]2c2ccccc2)C(C)O)CCNC(=O)[C@H](C(C)O)NC(=O)[C@H](CCN)NC(=O)[C@H](CCN)NC(=O)[C@H](C(C)O)NC1=O (single isomer, unassigned)" study_system="A. baum" observable="A. baum MIC 90" measured=C
